- TGT: PI3Kγ (Homo sapiens, UniProt P48736)
- Sequence (P48736 whole entry, species assumed): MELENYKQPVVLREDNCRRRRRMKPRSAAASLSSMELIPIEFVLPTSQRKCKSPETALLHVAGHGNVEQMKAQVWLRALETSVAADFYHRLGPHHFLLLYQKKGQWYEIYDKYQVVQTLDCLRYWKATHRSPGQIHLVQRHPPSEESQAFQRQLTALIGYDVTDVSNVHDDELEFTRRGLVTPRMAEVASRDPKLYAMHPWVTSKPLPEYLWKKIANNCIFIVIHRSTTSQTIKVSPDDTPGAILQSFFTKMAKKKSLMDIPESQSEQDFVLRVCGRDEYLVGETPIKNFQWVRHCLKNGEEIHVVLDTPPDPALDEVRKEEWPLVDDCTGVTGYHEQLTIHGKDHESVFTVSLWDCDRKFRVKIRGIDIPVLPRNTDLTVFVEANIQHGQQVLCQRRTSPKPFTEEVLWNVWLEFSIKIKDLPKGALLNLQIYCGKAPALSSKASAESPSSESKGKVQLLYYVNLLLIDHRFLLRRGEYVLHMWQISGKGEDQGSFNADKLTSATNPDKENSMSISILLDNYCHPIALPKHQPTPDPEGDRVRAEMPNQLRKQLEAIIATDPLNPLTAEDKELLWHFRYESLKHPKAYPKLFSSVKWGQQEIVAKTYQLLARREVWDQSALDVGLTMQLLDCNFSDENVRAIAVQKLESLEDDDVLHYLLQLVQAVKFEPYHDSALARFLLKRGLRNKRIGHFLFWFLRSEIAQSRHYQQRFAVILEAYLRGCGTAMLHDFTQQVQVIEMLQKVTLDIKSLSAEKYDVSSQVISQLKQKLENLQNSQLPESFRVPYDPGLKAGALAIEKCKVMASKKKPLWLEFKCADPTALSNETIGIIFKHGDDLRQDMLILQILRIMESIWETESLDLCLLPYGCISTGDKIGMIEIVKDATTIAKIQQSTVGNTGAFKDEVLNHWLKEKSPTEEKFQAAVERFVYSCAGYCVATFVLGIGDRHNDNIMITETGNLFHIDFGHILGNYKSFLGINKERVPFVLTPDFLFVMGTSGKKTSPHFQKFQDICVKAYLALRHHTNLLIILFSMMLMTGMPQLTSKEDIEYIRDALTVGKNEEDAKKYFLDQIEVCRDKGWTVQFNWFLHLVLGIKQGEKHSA
- TEST_METHOD_NOTES: PI3Kγ inhibitory activity (Ki value)
- Format: biochemical
- CONDITION_DETAILS: class symbols; read-out: PI3K γ Ki
pKi: −log10 of the molar value.
RECORDED_ENDPOINT: pKi

MOLECULE	RESULT
CC(C)NC(=O)c1ccccc1NC(=O)Nc1nc2c(s1)CN(c1cncc(C(F)(F)F)c1)CC2 [Compound I-131]	≥ 8.52
CC(C)CCc1ccccc1NC(=O)Nc1cc2n(n1)CCN2c1ccc2c(c1)CCN(C)C2=O [Compound I-113]	≥ 5.52
COc1cc(N2CCc3nc(NC(=O)NC4=C(C(=O)NC(C)(C)C)CCC4)sc3C2)nc(OC)n1 [Compound I-28]	≥ 6.52
COc1cncc(-c2cc(NC(=O)Nc3ccccc3C(=O)NC(C)C)nn2C)c1 [Compound I-226]	≥ 5.52
COc1cc(N2CCc3nc(NC(=O)Nc4cn(C)nc4C(=O)NCC(F)(F)F)sc3C2)nc(OC)n1 [Compound I-148]	≥ 7.52
CC(C)NC(=O)c1ccccc1NC(=O)Nc1cn2nc(-c3cccc(S(C)(=O)=O)c3)ccc2n1 [Compound I-125]	≥ 7.52
COc1cncc(-c2ccc3nc(NC(=O)Nc4ccccc4OCCC(C)C)nn3c2)c1 [Compound I-216]	≥ 6.52
COc1cc(C2(F)CCc3nc(NC(=O)Nc4ccccc4C(=O)NC(C)C)sc3C2)nc(OC)n1 (stereo not drawn) [Compound I-83]	≥ 6.52
COc1cc(-c2ccc3nc(NC(=O)Nc4ccccc4OCCC(C)C)sc3c2)nc(OC)n1 [Compound I-213]	≥ 6.52
CC(C)CCOc1ccccc1NC(=O)Nc1cn2nc(-c3cccc(S(C)(=O)=O)c3)ccc2n1 [Compound I-126]	≥ 6.52
Cc1nc(NC(=O)Nc2ccccc2C(=O)NC(C)C)sc1-c1ccc(S(C)(=O)=O)c(F)c1 [Compound I-127]	≥ 7.52
COc1cncc(-c2ccc3nc(NC(=O)Nc4ccccc4OCCC(C)C)sc3n2)c1 [Compound I-225]	≥ 7.52
COc1nc(Cl)cc(N2CCc3nc(NC(=O)Nc4ccccc4C(=O)NC4CCCC4O)sc3C2)n1 (stereo not drawn) [Compound I-174]	≥ 7.52
C[C@@H](CO)NC(=O)c1ccccc1NC(=O)Nc1nc2c(s1)CN(c1cc[nH]c(=O)c1)CC2 [Compound I-183]	≥ 6.52
CC(C)CCOc1ccccc1NC(=O)Nc1cc2n(n1)CCN2c1ccc2c(c1)CCN(C)C2=O [Compound I-112]	≥ 5.52
